Biological target: human V2 receptor (Homo sapiens)
Construct: expressed in transfected cells; host or cells: CHO K1 (ATCC) expressing firefly luciferase under a CRE-responsive promoter
Sequence (P30518 whole entry): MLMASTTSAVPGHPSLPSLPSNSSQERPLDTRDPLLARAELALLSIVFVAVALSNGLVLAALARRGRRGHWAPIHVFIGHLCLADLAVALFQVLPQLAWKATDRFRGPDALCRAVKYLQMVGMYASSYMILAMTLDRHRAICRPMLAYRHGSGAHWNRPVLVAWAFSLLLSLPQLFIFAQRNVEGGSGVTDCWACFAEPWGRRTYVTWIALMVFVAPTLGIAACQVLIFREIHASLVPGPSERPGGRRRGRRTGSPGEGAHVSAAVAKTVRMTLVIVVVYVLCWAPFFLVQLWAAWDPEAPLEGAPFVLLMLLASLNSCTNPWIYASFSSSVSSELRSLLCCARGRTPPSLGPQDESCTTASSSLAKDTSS
Experiment: Cellular in vitro assay for determining vasopressin receptor activity, V2 receptor cell line (CHO, CRE-luciferase)
Format: cell-based
Settings: CHO cell line transfected with human V2 receptor; [Arg8]-vasopressin at EC50 concentration, 3 hours; read-out: IC50 hV2
Procedure: B-1. Cellular In Vitro Assay for Determining Vasopressin Receptor Activity The identification of agonists and antagonists of the V1a and V2 vasopressin receptors from humans, rats and dogs as well as the quantification of the activity of the compounds of the invention is carried out using recombinant cell lines. […] The bioluminescence of the cell lines is detected using a suitable luminometer [Milligan G, Marshall F, Rees S, Trends in Pharmacological Sciences 17, 235-237 (1996)]. […]
ASSAY READOUT: IC50 (µM)

Use the examples below as a reference point.
Consider the compound shown here: O=C(N[C@H]1C[C@H]1F)c1cccc(Cl)c1-n1cnc(Cn2nc(-c3ccc(Cl)cc3)n(C[C@@H](O)C(F)(F)F)c2=O)n1 (racemic) What is its recorded IC50?
6.95

Consider the compound O=C(NCCC(F)(F)F)c1cccc(Cl)c1-n1cnc(Cn2nc(-c3ccc(Cl)cc3)n(C[C@H](O)C(F)(F)F)c2=O)n1 and give its measured IC50.
0.28

Could you tell me which IC50 is on file for O=C(NCC(F)(F)F)c1ccccc1-n1cnc(Cn2nc(-c3ccc(Cl)cc3)n(C[C@@H](O)C(F)(F)F)c2=O)n1 ?
1.54

(1) C=CC(C)C(=O)Nc1ncccc1-n1cnc(Cn2nc(-c3ccc(Cl)cc3)n(C[C@H](O)C(F)(F)F)c2=O)n1 (stereo partly drawn)
(2) CC(F)(F)CNc1ccncc1-n1cnc(Cn2nc(-c3ccc(Cl)cc3)n(C[C@H](O)C(F)(F)F)c2=O)n1
(3) O=C(Nc1ncccc1-n1cnc(Cn2nc(-c3ccc(Cl)cc3)n(C[C@H](O)C(F)(F)F)c2=O)n1)OCC(F)(F)F
(4) O=C(NC1CC1(F)F)c1cccc(Cl)c1-n1cnc(Cn2nc(-c3ccc(Cl)cc3)n(C[C@H](O)C(F)(F)F)c2=O)n1 (mixture of isomers)
(5) O=C(NCc1cccc(F)c1F)c1ccccc1-n1cnc(Cn2nc(-c3ccc(Cl)cc3)n(C[C@H](O)C(F)(F)F)c2=O)n1
hey, can you rank those compounds up there by IC50? biggest number first please Give your ranking as a list of the labels in the requested order.
1, 3, 4, 2, 5

* * *

Molecular target: human V1a receptor (Homo sapiens, UniProt P37288)
Construct: expressed in transfected cells; host or cells: CHO K1 (ATCC), also stably transfected with a modified aequorin
Sequence (P37288 whole entry): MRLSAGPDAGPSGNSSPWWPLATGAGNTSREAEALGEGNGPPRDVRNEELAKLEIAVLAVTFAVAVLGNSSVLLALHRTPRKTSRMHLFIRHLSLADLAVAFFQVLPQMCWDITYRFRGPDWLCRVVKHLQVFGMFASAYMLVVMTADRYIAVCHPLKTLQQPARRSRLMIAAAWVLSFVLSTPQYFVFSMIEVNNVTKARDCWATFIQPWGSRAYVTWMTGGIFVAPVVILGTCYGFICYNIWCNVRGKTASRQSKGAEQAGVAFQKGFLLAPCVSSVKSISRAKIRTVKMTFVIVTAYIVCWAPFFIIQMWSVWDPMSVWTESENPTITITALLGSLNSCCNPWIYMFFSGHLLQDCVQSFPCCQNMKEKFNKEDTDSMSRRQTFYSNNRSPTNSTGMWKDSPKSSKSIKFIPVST
Experiment: Cellular in vitro assay for determining vasopressin receptor activity, V1a receptor cell line (CHO, aequorin luminescence)
Format: cell-based
Details: selectivity ratio IC50 hV2 / IC50 hV1a
ASSAY READOUT: ratio IC50 hV2/hV1a

(P) CSCC(=O)Nc1ncccc1-n1cnc(Cn2nc(-c3ccc(Cl)cc3)n(C[C@H](O)C(F)(F)F)c2=O)n1
(Q) O=C(NCC(F)(F)F)c1ncccc1-n1cnc(Cn2nc(-c3ccc(Cl)cc3)n(C[C@@H](O)C(F)(F)F)c2=O)n1
I'm curious, which of these has a smaller ratio IC50 hV2/hV1a number: P or Q ? # answer = label of selected item
Q

(a) CC1(C)CN(C(=O)c2cccc(Cl)c2-n2cnc(Cn3nc(-c4ccc(Cl)cc4)n(C[C@H](O)C(F)(F)F)c3=O)n2)CCO1
(b) CC(C)(N)CNC(=O)c1nc(Cn2nc(-c3ccc(Cl)cc3)n(C[C@H](O)C(F)(F)F)c2=O)nn1-c1cnccc1C(=O)NCC(F)(F)F
Which entry has a larger number for ratio IC50 hV2/hV1a, a or b ? Give the chosen item's label as your response.
a
